System: Bacillus subtilis 168
Assign MIC to each entry below.
Reply with just the number (in µM).

Which MIC reading was recorded for the compound CC[C@H](C)[C@H](NC(=O)[C@H](CC(C)C)NC(=O)[C@H](Cc1cnc[nH]1)NC(=O)CNC(=O)[C@H](CC(C)C)NC(=O)[C@@H](NC(=O)[C@H](CCCCN)NC(=O)[C@H](CO)NC(=O)[C@H](Cc1c[nH]c2ccccc12)NC(=O)[C@H](CCSC)NC(=O)[C@@H](N)CCCCN)[C@@H](C)CC)C(=O)N[C@@H](CCCN=C(N)N)C(N)=O [KMWSKILGHLIR] ?
2.1

Give its MIC value. Item: CC[C@H](C)[C@H](NC(=O)CN)C(=O)N[C@@H](CCSC)C(=O)N[C@@H](CO)C(=O)N[C@@H](CO)C(=O)N[C@@H](CC(C)C)C(=O)N[C@@H](CCSC)C(=O)N[C@@H](CCCCN)C(=O)N[C@@H](CCCCN)C(=O)N[C@@H](CC(C)C)C(=O)N[C@@H](C)C(=O)N[C@@H](C)C(=O)N[C@@H](Cc1cnc[nH]1)C(=O)N[C@H](C(=O)N[C@@H](CCCCN)C(=O)N[C@@H](CCCCN)C(N)=O)[C@@H](C)CC [GIMSSLMKKLAAHIKK]
7

Entry under review: CC[C@H](C)[C@H](NC(=O)[C@H](CC(C)C)NC(=O)[C@H](CCCCN)NC(=O)[C@@H](NC(=O)[C@@H](NC(=O)[C@H](Cc1cnc[nH]1)NC(=O)[C@@H]1CCCN1C(=O)[C@H](CC(C)C)NC(=O)[C@@H](NC(=O)[C@H](CCCCN)NC(=O)[C@H](C)NC(=O)[C@H](CC(C)C)NC(=O)[C@H](CC(C)C)NC(=O)[C@H](CO)NC(=O)[C@H](C)NC(=O)[C@H](CCSC)NC(=O)CN)C(C)C)C(C)C)C(C)C)C(=O)N[C@@H](CCCCN)C(N)=O [GMASLLAKVLPHVVKLIK] . Reported MIC?
2.5

Please report the recorded MIC for CC[C@H](C)[C@H](NC(=O)[C@H](CCCCN)NC(=O)CNC(=O)[C@H](Cc1c[nH]c2ccccc12)NC(=O)[C@H](CC(N)=O)NC(=O)[C@@H](N)CCCCN)C(=O)N[C@@H](CC(C)C)C(=O)N[C@@H](CCCCN)C(=O)N[C@@H](Cc1cnc[nH]1)C(=O)N[C@H](C(=O)N[C@H](C(=O)N[C@@H](CCCCN)C(N)=O)[C@@H](C)CC)[C@@H](C)CC [KNWGKILKHIIK] .
5.8

----------
System: Bacillus cereus
Please respond with reported MIC for every item in the list.
Could you give me the number in µM? Just the number is fine.

Requested field: MIC. Item: CC(C)C[C@H](NC(=O)[C@H](CCCCN)NC(=O)[C@H](Cc1ccccc1)NC(=O)[C@@H](NC(=O)[C@H](CCCCN)NC(=O)CNC(=O)[C@H](CC(C)C)NC(=O)[C@@H](N)Cc1ccccc1)C(C)C)C(=O)N[C@@H](C)C(=O)N[C@@H](CO)C(=O)N[C@@H](CCCCN)C(=O)N[C@H](C(=O)N[C@@H](Cc1ccccc1)C(=O)N1CCC[C@H]1C(=O)N[C@@H](C)C(=O)N[C@H](C(=O)N[C@@H](Cc1ccccc1)C(=O)NCC(=O)N[C@@H](CCCCN)C(=O)N[C@H](C(=O)O)C(C)C)C(C)C)C(C)C
7.33

Consider the compound shown here: CC[C@H](C)[C@H](NC(=O)[C@@H]1CCCN1C(=O)[C@H](Cc1ccccc1)NC(=O)[C@@H](N)Cc1ccccc1)C(=O)N[C@H](C(=O)NCC(=O)N[C@@H](CCCCN)C(=O)N[C@@H](CC(C)C)C(=O)N[C@@H](CC(C)C)C(=O)N[C@@H](Cc1ccccc1)C(=O)NCC(=O)N[C@@H](CC(C)C)C(=O)N[C@@H](CO)C(=O)NCC(=O)N[C@@H](CC(C)C)C(=O)N[C@@H](CC(C)C)C(N)=O)C(C)C What is its recorded MIC?
8.72
